System: S. aureus (Xen36)
Assay: 96-well plate screening of surface conjugated AMPs for biofilm inhibition
Type: cell-based
Conditions: AMP tethered on BA coating, polypropylene 96-well plate, vs uncoated pp
No end group written: not given here.
measure.name: reduction of biofilm formation (%)
Answers are plain numbers, in %.

INSERT INTO measurements (substance, recorded_measurement) VALUES
  ('RRWRIVVIRVRRC-NH2 [E6, RRWRIVVIRVRRC-NH2]', 93),
  ('ILVRWIRWRIQWC-NH2 [3002C, ILVRWIRWRIQWC-NH2]', 93.6),
  ('VRLIVAVRIWRR-NH2 [IDR-1018, VRLIVAVRIWRR-NH2]', 93.5);

The recorded reduction of biofilm formation for KRWRIRVRVIRKC-NH2 [Tet20C, KRWRIRVRVIRKC-NH2] is 98.8
